# TARGET_ENTITY: Trans-sialidase [3-643,Y342H] (Trypanosoma cruzi, UniProt Q9BHJ5, Y342H)
# Construct: 3-643
# Sequence (Q9BHJ5 3-643 Y344H): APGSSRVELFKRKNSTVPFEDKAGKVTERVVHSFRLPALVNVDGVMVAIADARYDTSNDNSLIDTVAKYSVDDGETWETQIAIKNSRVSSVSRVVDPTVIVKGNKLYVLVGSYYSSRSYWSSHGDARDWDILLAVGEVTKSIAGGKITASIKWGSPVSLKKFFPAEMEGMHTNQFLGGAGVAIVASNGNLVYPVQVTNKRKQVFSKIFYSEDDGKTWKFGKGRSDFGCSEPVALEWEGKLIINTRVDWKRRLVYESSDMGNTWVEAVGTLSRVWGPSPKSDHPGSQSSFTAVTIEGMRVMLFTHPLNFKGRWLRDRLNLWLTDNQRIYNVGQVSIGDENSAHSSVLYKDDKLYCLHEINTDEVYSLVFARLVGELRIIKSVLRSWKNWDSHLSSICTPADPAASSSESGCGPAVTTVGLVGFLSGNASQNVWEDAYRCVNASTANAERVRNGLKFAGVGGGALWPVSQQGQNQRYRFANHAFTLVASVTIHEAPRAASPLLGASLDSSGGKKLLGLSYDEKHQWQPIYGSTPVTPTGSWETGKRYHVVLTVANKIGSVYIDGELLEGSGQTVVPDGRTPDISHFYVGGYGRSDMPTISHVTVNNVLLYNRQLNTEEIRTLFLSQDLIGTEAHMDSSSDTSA
# ASSAY_PROCEDURE: Diffusion Ordered Spectroscopy (DOSY)
# MEASUREMENT_PARAMETERS: 11 °C
pKd: −log10 of the molar value.
This section presents compounds with their documented pKd values.

{"COMPOUND": "CO[C@@H]1O[C@H](CO)[C@@H](O[C@@H]2O[C@H](CO)[C@H](O)[C@H](O)[C@H]2O)[C@H](O)[C@H]1O", "TARGET_ENTITY": "Trans-sialidase [3-643,Y342H] (Trypanosoma cruzi, UniProt Q9BHJ5, Y342H)", "pKd": 4.28}
{"COMPOUND": "CC(=O)NC1C(O)CC(OC2C(O)C(CO)OC(OC3C(CO)OC(O)C(O)C3O)C2O)(C(=O)O)OC1[C@H](O)[C@H](O)CO (some centres not stated)", "TARGET_ENTITY": "Trans-sialidase [3-643,Y342H] (Trypanosoma cruzi, UniProt Q9BHJ5, Y342H)", "pKd": 3.63}
